Each entry below lists one item and its recorded selectivity ratio value.
Assay: Therapeutic index, ratio of HC50 for human RBC to MIC for Escherichia coli DSM 1103
Assay type: toxicity
Conditions: human red blood cells versus Escherichia coli DSM 1103
recorded-endpoint: selectivity ratio

CC(C)C[C@@H]1NC(=O)[C@H](CCCCN)NC(=O)[C@H](C(C)C)NC(=O)C2=CC3=C4CCCC4=C4C=C(S[C@]4(C)[C@@]3(C)S2)C(=O)[C@H]2CCCN2C(=O)[C@H](CC(C)C)NC(=O)[C@H](CCCCN)NC(=O)[C@H](C(C)C)NC(=O)[C@H](CCCCN)NC(=O)[C@H](CC(C)C)NC(=O)[C@H](CCCCN)N(C)C(=O)[C@@H](Cc2ccccc2)NC(=O)[C@H](C(C)C)NC(=O)[C@H](CCCCN)NC1=O    1
Cc1sc2cc1C1=C(CCC1)c1cc(sc1C)C(=O)[C@H]1CCCN1C(=O)[C@H](CCCCN)NC(=O)[C@H](C13CC4CC(CC(C4)C1)C3)NC(=O)[C@H](CCCN)NC(=O)[C@@H]1CCCN1C(=O)[C@@H](Cc1ccccc1)NC(=O)[C@H](CCCN)NC(=O)[C@H](C13CC4CC(CC(C4)C1)C3)NC(=O)[C@H](CCCN)NC2=O    0.1
CC(C)C[C@@H]1NC(=O)[C@H](CCCCN)NC(=O)[C@H](C(C)C)NC(=O)[C@@H]2CCCN2C(=O)[C@@H](Cc2ccccc2)NC(=O)[C@H](CC(C)C)NC(=O)[C@H](CCCCN)NC(=O)[C@H](C(C)C)NC(=O)[C@H](CCCCN)NC(=O)C2=CC3=C4CCCC4=C4C=C(S[C@]4(C)[C@@]3(C)S2)C(=O)[C@H]2CCCN2C(=O)[C@H](CCCCN)NC1=O    0.4
CC(C)[C@@H]1NC(=O)C2=CC3=C4CCCC4=C4C=C(S[C@]4(C)[C@@]3(C)S2)C(=O)[C@H]2CCCN2C(=O)[C@H](Cc2ccc(O)cc2)NC(=O)[C@H](CCCN)NC(=O)[C@H](C(C)C)NC(=O)[C@@H]2CCCN2C(=O)[C@@H](Cc2ccccc2)NC(=O)[C@H](Cc2ccc(O)cc2)NC(=O)[C@H](CCCN)NC1=O    0.1
CC[C@H](C)[C@@H]1NC(=O)C2=CC3=C4CCCC4=C4C=C(S[C@]4(C)[C@@]3(C)S2)C(=O)[C@H]2CCCN2C(=O)[C@H](CC(C)C)NC(=O)[C@H](CCCN)NC(=O)[C@H]([C@@H](C)CC)NC(=O)[C@@H]2CCCN2C(=O)[C@H]2CCCN2C(=O)[C@H](CC(C)C)NC(=O)[C@H](CCCN)NC1=O    0.6
CC(C)NC(=O)C[C@@H]1NC(=O)C2=CC3=C4CCCC4=C4C=C(S[C@]4(C)[C@@]3(C)S2)C(=O)[C@H]2CCCN2C(=O)[C@H](C(C)C)NC(=O)[C@H](CCCN)NC(=O)[C@H](C(C)C)NC(=O)[C@@H]2CCCN2C(=O)[C@@H](Cc2ccccc2)NC(=O)[C@H](C(C)C)NC(=O)[C@H](CCCN)NC1=O    2

====

Assay: Selective ratio of HC50 for human RBC to IC50 for human HeLa cells
Assay type: toxicity
Conditions: human red blood cells versus HeLa cells
Please respond with Satisfied when measured selectivity ratio is strictly beneath 2, and with Not satisfied in all other cases.

Cc1sc2cc1C1=C(CCC1)c1cc(sc1C)C(=O)[C@H]1CCCN1C(=O)[C@H](C(C)C)NC(=O)[C@H](CCCN)NC(=O)[C@H](C(C)C)NC(=O)[C@@H]1CCCN1C(=O)[C@@H](Cc1ccccc1)NC(=O)[C@H](C(C)C)NC(=O)[C@H](CCCN)NC(=O)[C@H]([C@H](O)C(C)C)NC2=O    Not satisfied
CC(C)C[C@@H]1NC(=O)[C@H](CCCCN)NC(=O)[C@H](C(C)C)NC(=O)C2=CC3=C4CCCC4=C4C=C(S[C@]4(C)[C@@]3(C)S2)C(=O)[C@H]2CCCN2C(=O)[C@H](C(C)C)NC(=O)[C@H](CCCCN)NC(=O)[C@H](C(C)C)NC(=O)[C@H](CC(C)C)NC(=O)[C@@H](CCCCN)NC(=O)[C@@H]2CCCN2C(=O)[C@@H](Cc2ccccc2)NC(=O)[C@H](C(C)C)NC(=O)[C@H](CCCCN)NC1=O    Satisfied
CC(C)C[C@@H]1NC(=O)[C@H](CCCCN)NC(=O)[C@H](C(C)C)NC(=O)[C@@H]2CCCN2C(=O)[C@@H](Cc2ccccc2)NC(=O)[C@H](CC(C)C)NC(=O)[C@H](CCCCN)NC(=O)[C@H](C(C)C)NC(=O)[C@H](CCCCN)NC(=O)C2=CC3=C4CCCC4=C4C=C(S[C@]4(C)[C@@]3(C)S2)C(=O)[C@H]2CCCN2C(=O)[C@H](CCCCN)NC1=O    Satisfied
CC(C)C[C@@H]1NC(=O)[C@H](CCCN)NC(=O)[C@H](CCCN)NC(=O)C2=CC3=C4CCCC4=C4C=C(S[C@]4(C)[C@@]3(C)S2)C(=O)[C@H]2CCCN2C(=O)[C@H](CC(C)C)NC(=O)[C@H](CCCN)NC(=O)[C@H](C(C)C)NC(=O)[C@@H]2CCCN2C(=O)[C@@H](Cc2ccccc2)NC1=O    Satisfied
Cc1sc2cc1C1=C(CCC1)c1cc(sc1C)C(=O)[C@H]1CCCN1C(=O)[C@H](CCCCN)NC(=O)[C@H](C13CC4CC(CC(C4)C1)C3)NC(=O)[C@H](CCCN)NC(=O)[C@@H]1CCCN1C(=O)[C@@H](Cc1ccccc1)NC(=O)[C@H](CCCN)NC(=O)[C@H](C13CC4CC(CC(C4)C1)C3)NC(=O)[C@H](CCCN)NC2=O    Satisfied
